- experimental_system: Rac GTPase-activating protein 1 (Homo sapiens) (UniProt Q9H0H5)
- Sequence (Q9H0H5 whole entry, looked up): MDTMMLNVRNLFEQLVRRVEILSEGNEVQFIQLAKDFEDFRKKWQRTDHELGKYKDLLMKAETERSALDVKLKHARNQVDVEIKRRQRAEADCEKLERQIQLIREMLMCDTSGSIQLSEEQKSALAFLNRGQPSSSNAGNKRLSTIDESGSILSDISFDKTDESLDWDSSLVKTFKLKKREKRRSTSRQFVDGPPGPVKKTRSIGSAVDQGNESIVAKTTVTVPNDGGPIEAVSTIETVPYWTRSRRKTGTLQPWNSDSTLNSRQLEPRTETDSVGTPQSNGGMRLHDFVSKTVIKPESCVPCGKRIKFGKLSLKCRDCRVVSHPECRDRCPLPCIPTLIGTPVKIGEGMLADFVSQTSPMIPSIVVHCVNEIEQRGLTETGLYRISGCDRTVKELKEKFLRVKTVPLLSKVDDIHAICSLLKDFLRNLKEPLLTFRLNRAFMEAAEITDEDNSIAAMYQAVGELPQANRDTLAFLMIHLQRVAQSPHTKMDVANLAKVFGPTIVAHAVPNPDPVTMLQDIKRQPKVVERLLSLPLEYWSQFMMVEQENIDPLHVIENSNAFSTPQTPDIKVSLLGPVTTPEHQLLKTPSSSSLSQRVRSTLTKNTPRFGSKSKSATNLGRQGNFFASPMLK
- assay_text: blockers of MgcRacGAP-driven Rac1 GTP hydrolysis – biochemical, ADP Hunter fluorescence, primary and confirmatory, confirmation (AID 624330);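 further: fluorescence reports GDP produced by GAP-driven GTP hydrolysis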
- assay_context: MgcRacGAP-stimulated Rac1 GTP hydrolysis, at 30 µM, active compounds read high, GST-tagged Rac1 F28L mutant substrate
Screen size: about 340,000 compounds; about 2,100 (0.62%) were called active. Not all results are given here. Results with a measured potency or affinity are listed apart.
Below, each entry is listed with its recorded inhibition.
measured_metric: inhibition (%)

1) NS(=O)(=O)c1ccc(Nc2nc(-c3ccc4ccccc4c3)cs2)cc1 | -0.69
2) Oc1ccc(-c2csc(Nc3ccc4c(c3)OCO4)n2)c(O)c1 | 10.8
3) COc1ccc(NC(=O)c2ccc(CN3CCc4ccccc4C3)cc2)cc1OC | 4.51
4) CC(=O)Nc1ccc(Nc2nc(-c3cc4ccccc4oc3=O)cs2)cc1 | 4.39
5) CCN(CC(=O)Nc1ccccc1C(F)(F)F)C(=O)c1cc(-c2cccs2)nn1-c1ccccc1 | 1.06
